Molecular target: Protein deacetylase HDAC6 (Homo sapiens)
Sequence (Q9UBN7 whole entry): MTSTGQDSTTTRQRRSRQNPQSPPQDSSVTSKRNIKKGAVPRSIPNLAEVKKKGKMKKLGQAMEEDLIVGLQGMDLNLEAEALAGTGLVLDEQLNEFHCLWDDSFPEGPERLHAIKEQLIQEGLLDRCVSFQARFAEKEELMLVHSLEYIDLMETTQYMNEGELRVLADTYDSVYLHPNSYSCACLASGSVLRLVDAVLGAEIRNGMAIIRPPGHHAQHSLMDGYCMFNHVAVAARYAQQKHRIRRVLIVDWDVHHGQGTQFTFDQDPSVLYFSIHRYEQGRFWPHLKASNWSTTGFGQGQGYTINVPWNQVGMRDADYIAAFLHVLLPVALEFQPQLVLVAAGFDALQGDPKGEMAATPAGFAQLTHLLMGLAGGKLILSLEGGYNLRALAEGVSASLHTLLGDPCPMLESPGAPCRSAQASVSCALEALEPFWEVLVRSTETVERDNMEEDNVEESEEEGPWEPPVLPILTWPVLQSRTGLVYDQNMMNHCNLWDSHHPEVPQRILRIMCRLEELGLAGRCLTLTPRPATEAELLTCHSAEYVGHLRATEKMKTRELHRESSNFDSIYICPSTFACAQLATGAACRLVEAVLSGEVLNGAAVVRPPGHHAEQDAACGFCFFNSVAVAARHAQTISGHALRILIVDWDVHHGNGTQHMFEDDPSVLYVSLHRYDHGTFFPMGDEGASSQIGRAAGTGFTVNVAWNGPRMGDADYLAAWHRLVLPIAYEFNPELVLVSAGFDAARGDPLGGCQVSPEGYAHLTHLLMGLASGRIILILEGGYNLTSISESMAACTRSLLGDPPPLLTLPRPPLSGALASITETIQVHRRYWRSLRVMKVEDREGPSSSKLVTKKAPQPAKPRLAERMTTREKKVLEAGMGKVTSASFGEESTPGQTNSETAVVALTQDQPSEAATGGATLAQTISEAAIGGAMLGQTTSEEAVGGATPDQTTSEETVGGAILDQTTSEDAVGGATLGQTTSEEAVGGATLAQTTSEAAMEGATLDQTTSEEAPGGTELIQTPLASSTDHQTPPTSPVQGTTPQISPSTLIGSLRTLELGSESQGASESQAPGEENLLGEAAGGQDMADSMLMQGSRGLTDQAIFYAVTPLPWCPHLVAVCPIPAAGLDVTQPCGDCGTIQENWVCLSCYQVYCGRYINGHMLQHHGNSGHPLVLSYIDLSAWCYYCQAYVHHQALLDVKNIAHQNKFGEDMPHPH
Test: Competitive inhibition of human full-length recombinant HDAC6 expressed in baculovirus infected Sf9 insect cells using Boc-Lys (Ac)-AMC as substrate preincubated for 10 mins followed by substrate addition and measured after 30 mins by fluorescence assay
pKi: −log10 of the molar value.
ATTRIBUTE MEASURED: pKi

[
  {
    "COMPOUND STRING": "O=C(NO)c1ccc(Cn2c(=O)n(CCc3ccccc3)c(=O)c3ccccc32)cc1",
    "RECORDED RESULT": 8.80
  }
]

* * *

Form field: IC50 (one value per entry).
Target: Histone deacetylase 8 (Homo sapiens)
Sequence (Q9BY41 whole entry): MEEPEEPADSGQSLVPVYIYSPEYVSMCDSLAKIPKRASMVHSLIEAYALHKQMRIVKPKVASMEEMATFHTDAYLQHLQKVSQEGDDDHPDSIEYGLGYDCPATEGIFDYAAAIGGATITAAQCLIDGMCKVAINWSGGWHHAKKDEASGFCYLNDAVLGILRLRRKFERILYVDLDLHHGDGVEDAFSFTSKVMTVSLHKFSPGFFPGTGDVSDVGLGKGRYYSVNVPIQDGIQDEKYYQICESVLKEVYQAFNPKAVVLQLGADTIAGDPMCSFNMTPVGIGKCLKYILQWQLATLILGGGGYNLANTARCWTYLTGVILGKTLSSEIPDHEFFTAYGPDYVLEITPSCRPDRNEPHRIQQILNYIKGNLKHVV
Assay: Inhibition of human full-length recombinant HDAC8 expressed in baculovirus infected Sf9 insect cells using fluorogenic peptide RHKAcKAc as substrate after 2 hrs

[
  {
    "COMPOUND STRING": "O=C(NO)c1ccc(Cn2c(=O)n(CCc3ccc(O)cc3)c(=O)c3ccccc32)cc1",
    "MEASUREMENT TARGET": "Histone deacetylase 8 (Homo sapiens)",
    "IC50 / nM": 845
  },
  {
    "COMPOUND STRING": "COc1ccc(CCn2c(=O)c3ccccc3n(Cc3ccc(C(=O)NO)cc3)c2=O)cc1",
    "MEASUREMENT TARGET": "Histone deacetylase 8 (Homo sapiens)",
    "IC50 / nM": 1150
  },
  {
    "COMPOUND STRING": "O=C(NO)c1ccc(Cn2c(=O)n(CCc3cccc(C(F)(F)F)c3)c(=O)c3ccccc32)cc1",
    "MEASUREMENT TARGET": "Histone deacetylase 8 (Homo sapiens)",
    "IC50 / nM": 1760
  },
  {
    "COMPOUND STRING": "O=C(NO)c1ccc(Cn2c(=O)n(CCc3ccccc3)c(=O)c3ccccc32)cc1",
    "MEASUREMENT TARGET": "Histone deacetylase 8 (Homo sapiens)",
    "IC50 / nM": 309
  },
  {
    "COMPOUND STRING": "O=C(NO)c1ccc(Cn2c(=O)n(CCc3ccccc3)c(=O)c3ccccc32)s1",
    "MEASUREMENT TARGET": "Histone deacetylase 8 (Homo sapiens)",
    "IC50 / nM": 97
  }
]

# credit: ChEMBL document CHEMBL4330076
